Where do these numbers come from? They come from PubChem BioAssay AID1963875.

- Tested on: KRAS-mutant PDC complex spheroid viability
- test details: Anticancer human tumor 186277-243-T-J2-PDC patient-derived colon adenocarcinoma cell line growth inhibition [KRAS2]
- condition notes: second compound 0.316 µM; first compound 10 µM; active compounds read low
Entries and their viability, T/C
The answer is to be given in %; state only the numeric part.

Some compounds with recorded viability, T/C:
{"compound": "COc1cc(Nc2ncc3c(n2)-c2ccc(Cl)cc2C(c2c(F)cccc2OC)=NC3)ccc1C(=O)O + C=CC(=O)N1CCN(c2nc(OCC3CCCN3C)nc3c2CCN(c2cccc4cccc(C)c24)C3)CC1CC#N", "viability, T/C, %": 42.5}
{"compound": "O=C(c1cc(Cc2n[nH]c(=O)c3ccccc23)ccc1F)N1CCN(C(=O)C2CC2)CC1 + COc1cc2nc(C)nc(NC(C)c3cc(N)cc(C(F)(F)F)c3)c2cc1OC1CCOC1", "viability, T/C, %": 34.8}

Note: attention shifts to another entry.
Identify measured viability, T/C associated with O=C(c1cc(Cc2n[nH]c(=O)c3ccccc23)ccc1F)N1CCN(C(=O)C2CC2)CC1 + C=CC(=O)N1CCN(c2nc(=O)n(-c3c(C)ccnc3C(C)C)c3nc(-c4c(O)cccc4F)c(F)cc23)C(C)C1
33.1

---

- System: KRAS-mutant PDC complex spheroid viability
- test details: Anticancer human tumor 186277-243-T-J2-PDC cell line growth inhibition [KRAS2];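 further: viability read after seven days of compound exposure; 100% = DMSO vehicle-treated spheroids so lower means less viable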
- condition notes: second compound 1 µM; first compound 0.01 µM; active compounds read low
measured quantity: viability, T/C

Examples with their reported viability, T/C follow.
{"molecule": "CC(=O)Nc1cccc(-n2c(=O)n(C3CC3)c(=O)c3c(Nc4ccc(I)cc4F)n(C)c(=O)c(C)c32)c1 + COc1cc2nc(C)nc(NC(C)c3cc(N)cc(C(F)(F)F)c3)c2cc1OC1CCOC1", "result": "1.55%"}
{"molecule": "CCN1CCN(Cc2ccc(Nc3ncc(F)c(-c4cc(F)c5nc(C)n(C(C)C)c5c4)n3)nc2)CC1 + C=CC(=O)N1CCN(c2nc(=O)n(-c3c(C)ccnc3C(C)C)c3nc(-c4c(O)cccc4F)c(F)cc23)C(C)C1", "result": "103%"}

// moving on: another record for viability, T/C
Return viability, T/C (reported value) for this molecule: CN(C)C/C=C/C(=O)Nc1cc2c(Nc3ccc(F)c(Cl)c3)ncnc2cc1O[C@H]1CCOC1 + COc1cc2nc(C)nc(NC(C)c3cc(N)cc(C(F)(F)F)c3)c2cc1OC1CCOC1
105%

---

- Test system: KRAS-mutant PDC complex spheroid viability
- test details: Anticancer human tumor 186277-243-T-J2-PDC cell line growth inhibition [KRAS2]; active means viability on the fitted dose curve at most 10% of control; inactive means the rest;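 further: viability read after seven days of compound exposure; 100% = DMSO vehicle-treated spheroids so lower means less viable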
- condition notes: compound 1 µM
// classify into active, inactive

{"compound": "C=CC(=O)N1CCN(c2nc(=O)n(-c3c(C)ccnc3C(C)C)c3nc(-c4c(O)cccc4F)c(F)cc23)C(C)C1 (centres undefined)", "cat": "inactive"}

Any idea what this test logged for CCN1CCN(Cc2ccc(Nc3ncc(F)c(-c4cc(F)c5nc(C)n(C(C)C)c5c4)n3)nc2)CC1 ?
inactive

Please let me know the test result on file for CC1(C)CCC(CN2CCN(c3ccc(C(=O)NS(=O)(=O)c4ccc(NCC5CCOCC5)c([N+](=O)[O-])c4)c(Oc4cnc5[nH]ccc5c4)c3)CC2)=C(c2ccc(Cl)cc2)C1 .
inactive

Which outcome did this test record for the compound CC(=O)OC12COC1CC(O)C1(C)C(=O)C(O)C3=C(C)C(OC(=O)C(O)C(NC(=O)OC(C)(C)C)c4ccccc4)CC(O)(C(OC(=O)c4ccccc4)C21)C3(C)C (centres undefined) ?
active
